The reported numbers originate from ChEMBL document CHEMBL5331139.

biological target: Carbonic anhydrase 4 (Homo sapiens, UniProt P22748)
Sequence (P22748 whole entry): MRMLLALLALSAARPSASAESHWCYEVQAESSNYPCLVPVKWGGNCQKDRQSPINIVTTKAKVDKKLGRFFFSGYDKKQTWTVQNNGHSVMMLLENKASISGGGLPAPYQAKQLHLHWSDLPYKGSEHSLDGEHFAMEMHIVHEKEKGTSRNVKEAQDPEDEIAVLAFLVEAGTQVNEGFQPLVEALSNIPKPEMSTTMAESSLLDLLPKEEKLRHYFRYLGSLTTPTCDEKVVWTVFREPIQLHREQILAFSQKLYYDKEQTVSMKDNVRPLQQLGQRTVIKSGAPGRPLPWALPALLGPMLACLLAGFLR
# Lookup of reported pKi keyed by entry
pKi here is simply -log10 of the concentration when that concentration is written in mol/L.

Consider the reported pKi for these compounds:
NS(=O)(=O)c1ccc([Se][C@@H]2O[C@H](CO)[C@@H](O)[C@H](O)[C@H]2O)cc1	6.19
CC(=O)OC[C@H]1O[C@@H]([Se]c2ccc(NC(=O)c3ccc(S(N)(=O)=O)cc3)cc2)[C@H](OC(C)=O)[C@@H](OC(C)=O)[C@@H]1OC(C)=O	6.42

[in] Provide value of pKi for this record tested with Carbonic anhydrase 4 (Homo sapiens, UniProt P22748): `CC(=O)OC[C@H]1O[C@@H]([Se]c2ccc(NC(=O)c3ccc(S(N)(=O)=O)cc3)cc2)[C@H](OC(C)=O)[C@@H](OC(C)=O)[C@H]1OC(C)=O`
[out] 7.51

[in] Provide value of pKi for this record tested with Carbonic anhydrase 4 (Homo sapiens, UniProt P22748): `NS(=O)(=O)c1ccc([Se][C@@H]2O[C@H](CO)[C@H](O)[C@H](O)[C@H]2O)cc1`
[out] 6.24

[in] Provide value of pKi for this record tested with Carbonic anhydrase 4 (Homo sapiens, UniProt P22748): NS(=O)(=O)c1ccc(NC(=S)Nc2ccc([Se][C@@H]3O[C@H](CO)C(O)[C@H](O)[C@H]3O)cc2)cc1 (single isomer, unassigned; 16b)
[out] 7.11

[in] Provide value of pKi for this record tested with Carbonic anhydrase 4 (Homo sapiens, UniProt P22748): `CC(=O)OC[C@H]1O[C@@H]([Se]c2ccc(NC(=S)Nc3ccc(S(N)(=O)=O)cc3)cc2)[C@H](OC(C)=O)[C@@H](OC(C)=O)[C@@H]1OC(C)=O`
[out] 6.26

[in] Provide value of pKi for this record tested with Carbonic anhydrase 4 (Homo sapiens, UniProt P22748): `CC(=O)OC[C@H]1O[C@@H]([Se]c2ccc(S(N)(=O)=O)cc2)[C@H](OC(C)=O)[C@@H](OC(C)=O)[C@@H]1OC(C)=O`
[out] 5.39

----------
molecular target: Carbonic anhydrase 7 (Homo sapiens, UniProt P43166)
Sequence (P43166 whole entry): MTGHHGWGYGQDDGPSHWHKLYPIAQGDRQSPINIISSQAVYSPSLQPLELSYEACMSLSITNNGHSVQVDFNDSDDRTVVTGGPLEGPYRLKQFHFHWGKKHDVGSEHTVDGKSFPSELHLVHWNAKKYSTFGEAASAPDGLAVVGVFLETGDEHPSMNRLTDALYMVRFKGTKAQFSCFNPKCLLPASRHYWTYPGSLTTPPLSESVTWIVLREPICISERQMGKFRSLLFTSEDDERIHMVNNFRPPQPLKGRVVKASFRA
pKi: −log10 of the molar value.
Classification field: enter True for pKi values not below 8, False for values below it.

CC(=O)OC[C@H]1O[C@@H]([Se]c2ccc(NC(=S)Nc3ccc(S(N)(=O)=O)cc3)cc2)[C@H](OC(C)=O)[C@@H](OC(C)=O)[C@@H]1OC(C)=O	True

[in] Would you say `CC(=O)O[C@@H]1[C@@H](OC(C)=O)[C@H]([Se]c2ccc(S(N)(=O)=O)cc2)O[C@H](CO)[C@H]1OC(C)=O` shows pKi at minimum 8?
[out] True

[in] Would you say `CC(=O)OC[C@H]1O[C@@H]([Se]c2ccc(S(N)(=O)=O)c(N)c2)[C@H](OC(C)=O)[C@@H](OC(C)=O)[C@H]1OC(C)=O` shows pKi at minimum 8?
[out] False

----------
# Lookup of reported Ki keyed by entry
biological target: Carbonic anhydrase 2 (Homo sapiens, UniProt P00918)
Answer in nM, number only, no unit symbol.

Consider the reported Ki for these compounds:
CC(=O)OC[C@H]1O[C@@H]([Se]c2ccc(S(N)(=O)=O)cc2)[C@H](OC(C)=O)[C@@H](OC(C)=O)[C@H]1OC(C)=O	4.1
NS(=O)(=O)c1ccc([Se][C@@H]2O[C@H](CO)[C@H](O)[C@H](O)[C@H]2O)cc1	53.7
CC(=O)OC[C@H]1O[C@@H]([Se]c2ccc(NC(=O)c3ccc(S(N)(=O)=O)cc3)cc2)[C@H](OC(C)=O)[C@@H](OC(C)=O)[C@H]1OC(C)=O	4

We next turn to a different compound, shown below.
[in] Provide value of Ki for this record tested with Carbonic anhydrase 2 (Homo sapiens, UniProt P00918): `Nc1cc([Se][C@@H]2O[C@H](CO)[C@@H](O)[C@H](O)[C@H]2O)ccc1S(N)(=O)=O`
[out] 4010
